- measured.target: T1, recombinant MBP-EDIII of DENV3 (Dengue virus 3, strain …, UniProt P27915, strain)
- T1 construct: also called DENV3 EDIII; envelope protein domain III of DENV3; not shown: MBP, N-terminal, kept
- test.name: SPR
- measurement.setup: both partners purified
reported.metric: Kd

Some entries whose results are on file:
binder | reported.metric | assay.value
1A1D-2 Fab Y105R.H (Fab, V domains shown) VH: EVQLQQSGAELVKPGASVKLSCTASGFNIKDTYMHWVKQRPEQGLEWIGRIDPANGYSKYDPKFQGKATITADTSSNAAYLQLSSLTSEDTAVYFCARDYEGFARWGQGTLVTVSS VL: DIVLTQSPASLAVSLGQRATISCRASESVVRYGNSFMHWYQQKPGQPPKLLIYRASSLESGIPTRFSGSGSRTDFTLTINPVEADDVATYYCQQTNVDPWAFGGGTKLEIK | Kd | 49.2 nM
1A1D-2 Fab A54E-Y105R double mutant (Fab, V domains shown) VH: EVQLQQSGAELVKPGASVKLSCTASGFNIKDTYMHWVKQRPEQGLEWIGRIDPENGYSKYDPKFQGKATITADTSSNAAYLQLSSLTSEDTAVYFCARDYEGFARWGQGTLVTVSS VL: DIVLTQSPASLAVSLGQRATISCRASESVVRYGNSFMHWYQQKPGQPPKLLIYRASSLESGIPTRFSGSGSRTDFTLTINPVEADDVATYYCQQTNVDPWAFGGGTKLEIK | Kd | 7.11 nM

With those in mind, consider the next binder.
I am curious: what Kd value has been reported for 1A1D-2 Fab A54E.H (Fab, V domains shown) VH: EVQLQQSGAELVKPGASVKLSCTASGFNIKDTYMHWVKQRPEQGLEWIGRIDPENGYSKYDPKFQGKATITADTSSNAAYLQLSSLTSEDTAVYFCARDYEGFAYWGQGTLVTVSS VL: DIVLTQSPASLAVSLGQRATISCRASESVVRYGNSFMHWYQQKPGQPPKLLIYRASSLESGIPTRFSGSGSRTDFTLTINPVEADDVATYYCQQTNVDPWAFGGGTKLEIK ? 10.3 nM

Source: paper PMC9027083
